target: 1b (BK) NS5bΔ21 (Hepatitis C virus genotype 1b (isolate BK) (HCV), UniProt P26663); assay: HCV polymerase inhibition assay, genotype 1b; type: biochemical, HCV genotype 1b (BK); conditions: genotype 1b; read-out: 1b NS5b polymerase IC50
Sequence (P26663 2420-2989): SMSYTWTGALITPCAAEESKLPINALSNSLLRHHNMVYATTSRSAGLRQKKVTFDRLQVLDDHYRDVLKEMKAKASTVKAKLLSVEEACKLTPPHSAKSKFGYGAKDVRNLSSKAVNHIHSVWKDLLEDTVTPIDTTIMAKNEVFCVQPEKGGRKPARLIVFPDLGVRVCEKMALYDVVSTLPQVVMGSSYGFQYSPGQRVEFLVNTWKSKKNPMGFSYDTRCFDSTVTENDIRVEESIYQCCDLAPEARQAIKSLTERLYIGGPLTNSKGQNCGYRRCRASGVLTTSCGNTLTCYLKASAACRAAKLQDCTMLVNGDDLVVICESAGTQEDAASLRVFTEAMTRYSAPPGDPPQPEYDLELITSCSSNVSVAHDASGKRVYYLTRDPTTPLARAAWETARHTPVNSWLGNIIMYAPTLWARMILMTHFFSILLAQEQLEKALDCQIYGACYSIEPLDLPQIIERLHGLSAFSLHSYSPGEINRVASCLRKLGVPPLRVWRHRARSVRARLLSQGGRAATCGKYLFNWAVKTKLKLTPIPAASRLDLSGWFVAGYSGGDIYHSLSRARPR
parameter: pIC50
pIC50 (log units): -log10 of the concentration in mol/L.

Completed entries (count: 6):
CNC(=O)c1c2cc(C3CC3)c(N(CCCNC(=O)c3ccoc3)S(C)(=O)=O)cc2nn1-c1ccc(Nc2ccc(F)cc2)cc1 [Compound 120] | 6.96
CNC(=O)c1c2cc(C3CC3)c(N(CCC3COC(C)(C)OC3)S(C)(=O)=O)cc2nn1-c1ccc(Br)cc1 [Compound 95] | 7.15
CNC(=O)c1c2cc(C3CC3)c(N(CCCNC(=O)c3ccoc3)S(C)(=O)=O)cc2nn1-c1ccc(Br)cc1 [Compound 160] | 7.15
CCN(c1cc2nn(-c3ccc(Cl)cc3)c(C(=O)NC)c2cc1C1CC1)S(C)(=O)=O [Compound 175] | 7.00
CNC(=O)c1c2cc(C3CC3)c(N(CCCNC(=O)[C@H]3CCC[C@@H]3C(=O)OC)S(C)(=O)=O)cc2nn1-c1ccc(Br)cc1 [Compound 216] | 6.74
CNC(=O)c1c2cc(C3CC3)c(N(CCN3CCOCC3)S(C)(=O)=O)cc2nn1-c1ccc(Oc2ccc(F)cc2)cc1 [Compound 112] | 6.39

Attention now turns to another entry.
Entry CNC(=O)c1c2cc(C3CC3)c(N(CCCNC(=O)c3cccnc3)S(C)(=O)=O)cc2nn1-c1ccc(Br)cc1 [Compound 191] ; pIC50 = 6.37

---

Biological target: 1b (BK) NS5bΔ21 (Hepatitis C virus genotype 1b (isolate BK) (HCV), UniProt P26663)
Assay: HCV polymerase inhibition assay, genotype 1b
Type: biochemical, HCV genotype 1b (BK)
Details: 1b (BK) NS5bΔ21, 33P-GTP incorporation; read-out: 1b polymerase IC50 (range class)
Protocol: HCV polymerase reactions were carried out using a modified method of Howe et al., Antimicrobial Agents and Chemotherapy 2004 48(12): 4813-4821. […] Terminated reactions were transferred to DEAE 96-well filter plates, unincorporated nucleotides washed from the filters and 50 μL scintillation fluid added prior to reading on a scintillation counter. […]
parameter: IC50

Here's what some known entries look like.
CNC(=O)c1c2cc(C3CC3)c(N(CCCNC(=O)CCC(=O)O)S(C)(=O)=O)cc2nn1-c1ccc(Nc2ccc(F)cc2)cc1 | < 990 nM
CNC(=O)c1c2cc(C3CC3)c(N(CCCNC(C)=O)S(C)(=O)=O)cc2nn1-c1ccc(Br)cc1 | < 990 nM
CNC(=O)c1c2cc(C3CC3)c(-c3nccn3C)cc2nn1-c1ccc(F)cc1 | 1000 to 9990 nM
CNC(=O)c1c2cc(C3CC3)c(N(CCCS(C)(=O)=O)S(C)(=O)=O)cc2nn1-c1ccc(Br)cc1 | < 990 nM
CCNC(=O)CCCN(c1cc2nn(-c3ccc(Br)cc3)c(C(=O)NC)c2cc1C1CC1)S(C)(=O)=O | < 990 nM
CCN(C(=O)c1ccco1)c1cc2nn(-c3ccc(Br)cc3)c(C(=O)NC)c2cc1C1CC1 | 10000 to 50000 nM
CNC(=O)c1c2cc(C3CC3)c(N(CCCN3C(=O)CCC3=O)S(C)(=O)=O)cc2nn1-c1ccc(Br)cc1 | < 990 nM
CNC(=O)c1c2cc(C3CC3)c(N3CCN(C)S3(=O)=O)cc2nn1-c1ccc(Br)cc1 | 10000 to 50000 nM

Sample CNC(=O)c1c2cc(OC)c(N(CCCO)S(C)(=O)=O)cc2nn1-c1ccc(Nc2ccccc2F)cc1 ; IC50 observed: 1000 to 9990 nM

Lab note: CNC(=O)c1c2cc(C3CC3)c(N3CCCS3(=O)=O)cc2nn1-c1ccc(Br)cc1 gave IC50 of 1000 to 9990 nM

Just so you know, measured IC50 for CNC(=O)c1c2cc(C3CC3)c(N(CC3CC3)S(C)(=O)=O)cc2nn1-c1ccc(Br)cc1 came out at < 990 nM

---

molecular target: 1b (BK) NS5bΔ21 (Hepatitis C virus genotype 1b (isolate BK) (HCV)); experiment: HCV polymerase inhibition assay, genotype 1b; format: biochemical, HCV genotype 1b (BK); settings: 1b (BK) NS5bΔ21, 33P-GTP incorporation; read-out: 1b polymerase IC50 (range class)
pIC50: −log10 of the molar value.
parameter: pIC50

1b (BK) NS5bΔ21 (Hepatitis C virus genotype 1b (isolate BK) (HCV)) pIC50 of CNC(=O)c1c2cc(C3CC3)c(N(CCCNC(=O)[C@H]3CCC[C@@H]3C(=O)OC)S(C)(=O)=O)cc2nn1-c1ccc(Br)cc1 is > 6.00

For the compound CCN(c1ccc2c(C(=O)NC)n(-c3ccc(F)cc3)nc2c1)S(C)(=O)=O , the measured pIC50 on 1b (BK) NS5bΔ21 (Hepatitis C virus genotype 1b (isolate BK) (HCV)) was 4.30 to 5.00

Record for CNC(=O)c1c2cc(C3CC3)c(N(CCC3COC(C)(C)OC3)S(C)(=O)=O)cc2nn1-c1ccc(Cl)cc1 under target or system 1b (BK) NS5bΔ21 (Hepatitis C virus genotype 1b (isolate BK) (HCV)): pIC50 reported as > 6.00

Lab note: compound CC=Cc1cc2c(C(=O)NC)n(-c3ccc(F)cc3)nc2cc1N(CC)S(C)(=O)=O tested on 1b (BK) NS5bΔ21 (Hepatitis C virus genotype 1b (isolate BK) (HCV)); recorded pIC50 was 5.00 to 6.00

Sample CNC(=O)c1c2cc(C3CC3)c(N(CCCNC(=O)c3ccccc3C(=O)O)S(C)(=O)=O)cc2nn1-c1ccc(NCC(C)C)cc1 , system: 1b (BK) NS5bΔ21 (Hepatitis C virus genotype 1b (isolate BK) (HCV)). Its pIC50 is > 6.00

Item CNC(=O)c1c2cc(C3CC3)c(N(CCCO)S(C)(=O)=O)cc2nn1-c1ccc(Oc2ccccc2F)cc1 ; assay system 1b (BK) NS5bΔ21 (Hepatitis C virus genotype 1b (isolate BK) (HCV)); pIC50 reported as > 6.00

Response field pIC50 (1b (BK) NS5bΔ21 (Hepatitis C virus genotype 1b (isolate BK) (HCV))) for item CNC(=O)c1c2cc(C3CC3)c(N(CCCC(=O)O)S(C)(=O)=O)cc2nn1-c1ccc(Cl)cc1 : > 6.00

---

molecular target: 1b (BK) NS5bΔ21 (Hepatitis C virus genotype 1b (isolate BK) (HCV), UniProt P26663); assay: HCV polymerase inhibition assay, genotype 1b; type: biochemical, HCV genotype 1b (BK); settings: 1b (BK) NS5bΔ21, 33P-GTP incorporation; read-out: 1b polymerase IC50 (range class)
pIC50: −log10 of the molar value.
parameter: pIC50

CNC(=O)c1c2cc(C3CC3)c(N(CCCNCc3ccc(OC)cc3)S(C)(=O)=O)cc2nn1-c1ccc(Br)cc1 | 5.00 to 6.00
CCN(c1cc2nn(-c3ccc(Oc4ccc(F)cc4)cc3)c(C(=O)NC)c2cc1C1CC1)S(C)(=O)=O | > 6.00

Short answer for CNC(=O)c1c2cc(C3CC3)c(N(CC(CO)CO)S(C)(=O)=O)cc2nn1-c1ccc(Br)cc1 : pIC50 was 4.30 to 5.00

---

Each record here notes measured pIC50.
molecular target: 1b (BK) NS5bΔ21 (Hepatitis C virus genotype 1b (isolate BK) (HCV), UniProt P26663); assay: HCV polymerase inhibition assay, genotype 1b; assay type: biochemical, HCV genotype 1b (BK); conditions: 1b (BK) NS5bΔ21, 33P-GTP incorporation; read-out: 1b polymerase IC50 (range class)
pIC50: −log10 of the molar value.

Example compounds with recorded pIC50:
CNC(=O)c1c2cc(C3CC3)c(N(CCCNC(=O)c3cnoc3)S(C)(=O)=O)cc2nn1-c1ccc(Br)cc1 | > 6.00
CNC(=O)c1c2cc(C3CC3)c(N(CCCC(=O)O)S(C)(=O)=O)cc2nn1-c1ccc(C)cc1 | > 6.00
CNC(=O)c1c2cc(C3CC3)c(N(CCCNC(=O)C(C)C)S(C)(=O)=O)cc2nn1-c1ccc(Cl)cc1 | > 6.00
CNC(=O)c1c2cc(C3CC3)c(N(CCNC(C)=O)S(C)(=O)=O)cc2nn1-c1ccc(Oc2ccc(F)cc2)cc1 | 5.00 to 6.00
CCN(c1cc2nn(-c3ccc(Cl)cc3)c(C(=O)NC)c2cc1C1CC1)S(C)(=O)=O | > 6.00
CNC(=O)c1c2cc(C3CC3)c(-c3cncn3C)cc2nn1-c1ccc(F)cc1 | 4.30 to 5.00
CCN(c1cc2nn(-c3ccc(F)cc3)c(C(=O)NC)c2cc1C1CCCC1)S(C)(=O)=O | 4.30 to 5.00
CNC(=O)c1c2cc(C3CC3)c(N(CCCNC(=O)c3ccnc(OC)c3)S(C)(=O)=O)cc2nn1-c1ccc(Br)cc1 | > 6.00

For this compound ( CCN(c1cc2nn(-c3ccc(F)cc3)c(C(=O)NC)c2cc1OC(F)F)S(C)(=O)=O ), measured pIC50 is 4.30 to 5.00

These measurements were taken from patent US8546389B2.
